From: patent US20260184712A1

Biological target: human ENT1 (Homo sapiens, UniProt Q99808)
Construct: JAR cells expressing ENT1 were purchased from ATCC; host or cells: JAR cells
Experiment: ENT1 binding assay (competition with Sahenta-DY647 on JAR cells)
Conditions: competition with SAHENTA-DY647 binding; IC50 categorized; read-out: Binding Assay IC50
reported-endpoint: IC50

Take a look at these entries with their results.
# compound, reported-endpoint, observed-value
measured = [
    ("C[C@H]1O[C@@H](n2c(N[C@H]3C[C@@H](O)C3)nc3c(OCc4ccc([N+](=O)[O-])cc4)ncnc32)[C@H](O)[C@@H]1O", "IC50", "1 to 20 nM"),
    ("Cc1ccc(CNc2ncnc3c2ncn3[C@@H]2O[C@H](C)[C@@H](O)[C@H]2O)cc1C", "IC50", "> 500 nM"),
    ("C[C@H]1O[C@@H](n2c(NCCO)nc3c(OCc4ccc(OC(F)F)cc4)ncnc32)[C@H](O)[C@@H]1O", "IC50", "1 to 20 nM"),
    ("C[C@H]1O[C@@H](n2cnc3c(NCc4ccccc4C(N)=O)ncnc32)[C@H](O)[C@@H]1O", "IC50", "> 500 nM"),
    ("C[C@H]1O[C@@H](n2c(NCC3CC(F)(F)C3)nc3c(OCc4ccc(C#N)cc4)ncnc32)[C@H](O)[C@@H]1O", "IC50", "1 to 20 nM"),
    ("C[C@H]1O[C@@H](n2cnc3c(OCc4ccc(OC(F)(F)F)c(Cl)c4)ncnc32)[C@H](O)[C@@H]1O", "IC50", "> 500 nM"),
]

The reported IC50 of the compound C[C@H]1O[C@@H](n2cnc3c(OCc4ccccc4-n4cccn4)ncnc32)[C@H](O)[C@@H]1O was > 500 nM

---

Molecular target: human ENT1 (Homo sapiens)
Construct: JAR cells expressing ENT1 were purchased from ATCC; host or cells: JAR cells
Experiment: ENT1 binding assay (competition with Sahenta-DY647 on JAR cells)
Details: competition with SAHENTA-DY647 binding; IC50 categorized; read-out: Binding Assay IC50
pIC50: −log10 of the molar value.
Overview of recorded pIC50 for various compounds

Take a look at these entries with their results.
# compound, pIC50
records = [
    ("C[C@H]1O[C@@H](n2cnc3c(NCc4ccc(-c5ccccn5)cc4)ncnc32)[C@H](O)[C@@H]1O [Compound 384]", "< 6.30"),
    ("C[C@H]1O[C@@H](n2cnc3c(NC(=O)c4ccc([N+](=O)[O-])cc4)ncnc32)[C@H](O)[C@@H]1O [Compound 412]", "< 6.30"),
    ("C[C@H]1O[C@@H](n2cnc3c(OCCc4ccc(C(F)F)nc4)ncnc32)[C@H](O)[C@@H]1O [Compound 400]", "< 6.30"),
]

Switching to the query record.
The reported pIC50 of the compound C[C@H]1O[C@@H](n2cnc3c(N4CCC(c5ccc([N+](=O)[O-])cc5)CC4)ncnc32)[C@H](O)[C@@H]1O [Compound 213] was 6.30 to 7.70

---

Overview of recorded IC50 for various compounds
Molecular target: Human ENT2 (Homo sapiens, UniProt Q14542)
Sequence (Q14542 whole entry): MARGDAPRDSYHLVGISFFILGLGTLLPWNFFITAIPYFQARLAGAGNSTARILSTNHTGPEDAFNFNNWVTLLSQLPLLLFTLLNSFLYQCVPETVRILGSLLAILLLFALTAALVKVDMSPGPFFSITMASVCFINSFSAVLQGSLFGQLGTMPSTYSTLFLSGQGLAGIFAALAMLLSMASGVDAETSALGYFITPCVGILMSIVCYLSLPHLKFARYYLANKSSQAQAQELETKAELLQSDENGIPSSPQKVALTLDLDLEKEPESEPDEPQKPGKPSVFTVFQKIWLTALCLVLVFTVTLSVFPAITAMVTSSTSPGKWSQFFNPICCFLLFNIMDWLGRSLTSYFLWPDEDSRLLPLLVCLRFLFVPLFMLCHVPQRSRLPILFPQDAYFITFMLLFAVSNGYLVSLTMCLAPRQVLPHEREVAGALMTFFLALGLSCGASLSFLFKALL
Assay: Adenosine uptake assay, ENT2-mediated transport in MDCKII cells
Details: MDCKIIENT2-LV cells, probe adenosine 0.5 μM, pre-incubation 30 min, incubation 10 min

Take a look at these entries with their results.
# compound, reported-endpoint, observed-value
rows = [
    ("C[C@H]1O[C@@H](n2cnc3c(OCc4ccc(OC(F)F)cc4)ncnc32)[C@H](O)[C@@H]1O", "IC50", "> 1000 nM"),
    ("C[C@H]1O[C@@H](n2c(NC3CCOCC3)nc3c(OCc4ccc(C#N)cc4)ncnc32)[C@H](O)[C@@H]1O", "IC50", "20 to 1000 nM"),
    ("C[C@H]1O[C@@H](n2c(NC3CCCC3)nc3c(OCc4ccc([N+](=O)[O-])cc4)ncnc32)[C@H](O)[C@@H]1O", "IC50", "20 to 1000 nM"),
    ("C[C@H]1O[C@@H](n2c(NC3CCOCC3)nc3c(OCc4ccc(OC(F)F)nc4)ncnc32)[C@H](O)[C@@H]1O", "IC50", "20 to 1000 nM"),
]

Item COc1cc(C(=O)OCCCN2CCCN(CCCOC(=O)c3cc(OC)c(OC)c(OC)c3)CC2)cc(OC)c1OC [Dilazep, dilazep, reference compound] was tested on Human ENT2 (Homo sapiens, UniProt Q14542); the reported IC50 is > 1000 nM

---

Overview of recorded IC50 for various compounds
Biological target: human ENT1 (Homo sapiens, UniProt Q99808)
Construct: JAR cells expressing ENT1 were purchased from ATCC; host or cells: JAR cells
Sequence (Q99808 1-456): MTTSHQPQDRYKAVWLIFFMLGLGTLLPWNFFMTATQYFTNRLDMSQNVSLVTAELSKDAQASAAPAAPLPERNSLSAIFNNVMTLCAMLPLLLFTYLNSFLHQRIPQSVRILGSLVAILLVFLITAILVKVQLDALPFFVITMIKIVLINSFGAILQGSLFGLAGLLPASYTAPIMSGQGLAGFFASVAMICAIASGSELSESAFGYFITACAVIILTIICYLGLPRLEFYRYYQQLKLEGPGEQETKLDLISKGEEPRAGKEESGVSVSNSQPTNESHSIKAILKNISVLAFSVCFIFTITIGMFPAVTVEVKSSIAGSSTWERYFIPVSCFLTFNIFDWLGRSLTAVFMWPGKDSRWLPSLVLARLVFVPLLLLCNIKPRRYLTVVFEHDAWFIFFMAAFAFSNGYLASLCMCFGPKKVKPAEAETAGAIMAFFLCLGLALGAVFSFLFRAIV
Assay: ENT1 binding assay (competition with Sahenta-DY647 on JAR cells)
Settings: competition with SAHENTA-DY647 binding; IC50 categorized; read-out: Binding Assay IC50

Take a look at these entries with their results.
# compound, IC50
rows = [
    ("C[C@H]1O[C@@H](n2cnc3c(NCc4ccc(NS(C)(=O)=O)cc4)ncnc32)[C@H](O)[C@@H]1O [Compound 261]", "> 500 nM"),
    ("C[C@H]1O[C@@H](n2cnc3c(OCCc4ccc(C(F)F)cc4)ncnc32)[C@H](O)[C@@H]1O [Compound 267]", "> 500 nM"),
    ("C[C@H]1O[C@@H](n2cnc3c(C(=O)NCc4ccc(Cl)cc4)ncnc32)[C@H](O)[C@@H]1O [Compound 353]", "> 500 nM"),
]

The reported IC50 of the compound C[C@H]1OC(n2cnc3c(COc4ccc(OC(F)F)cc4)ncnc32)[C@H](O)[C@@H]1O (some centres unmarked) [Compound 233] was > 500 nM

The reported IC50 of the compound OC[C@H]1O[C@@H](n2cnc3c(OCc4ccc(OC(F)(F)F)cc4)nc(Cl)nc32)[C@H](O)[C@@H]1O [Compound 156] was 1 to 20 nM

The reported IC50 of the compound C[C@H]1O[C@@H](n2cnc3c(C(=O)N4CCc5ccc([N+](=O)[O-])cc5C4)ncnc32)[C@H](O)[C@@H]1O [Compound 360] was > 500 nM

The reported IC50 of the compound C[C@H]1O[C@@H](n2cnc3c(OCc4ccc(OC(F)F)cc4)ncnc32)[C@H](O)[C@@H]1O [Compound 173] was 20 to 500 nM

The reported IC50 of the compound CN(C)C(=O)[C@H]1O[C@@H](n2cnc3c(OCc4ccc([N+](=O)[O-])cc4)ncnc32)[C@H](O)[C@@H]1O [Compound 329] was > 500 nM

The reported IC50 of the compound CC(CCO)Nc1nc2c(OCc3ccc(F)cc3)ncnc2n1[C@@H]1O[C@H](C)[C@@H](O)[C@H]1O (some centres unmarked) [Compound 98] was 1 to 20 nM

The reported IC50 of the compound C[C@H]1O[C@@H](n2c(Nc3cnn(C)c3)nc3c(OCc4ccc([N+](=O)[O-])cc4)ncnc32)[C@H](O)[C@@H]1O [Compound 17] was 1 to 20 nM

The reported IC50 of the compound C[C@H]1O[C@@H](n2c(NCC3CC(F)(F)C3)nc3c(OCc4ccc(OC(F)F)nc4)ncnc32)[C@H](O)[C@@H]1O [Compound 114] was 1 to 20 nM

The reported IC50 of the compound CC(CCO)Nc1nc2c(OCc3ccc(Cl)cc3)ncnc2n1[C@@H]1O[C@H](C)[C@@H](O)[C@H]1O (some centres unmarked) [Compound 97] was 1 to 20 nM

The reported IC50 of the compound C[C@H]1O[C@@H](n2c(NC3CC3)nc3c(OCc4ccc([N+](=O)[O-])cc4)ncnc32)[C@H](O)[C@@H]1O [Compound 26] was 1 to 20 nM

The reported IC50 of the compound C[C@H]1O[C@@H](n2c(Nc3cnn(C)c3)nc3c(N4CCc5ccc([N+](=O)[O-])cc5C4)ncnc32)[C@H](O)[C@@H]1O [Compound 142] was < 1 nM
